Source: patent US9676714B2

target: proton pump (H+/K+-ATPase) (Sus scrofa); construct: Gastric vesicles were prepared from hog stomach via centrifugal separation; assay: Measurement of inhibitory effects on proton pump (H+/K+-ATPase) activities; settings: hog gastric vesicles, K+-specific H+/K+-ATPase activity, Tris-HCl buffer pH 7.4, 37° C. for 40 minutes, malachite green Pi readout
pIC50: −log10 of the molar value. Counter-ions that a name gives are not always drawn.
READOUT: pIC50

- MOLECULE: "CNCc1cn(S(=O)(=O)c2cccnc2)c2cc(Nc3cc(Cl)cc(Cl)c3)ccc12 [Example 64, hydrochloride]"
  pIC50: 5.74
- MOLECULE: "CNCc1cn(S(=O)(=O)c2cccnc2)c2cc(Nc3ccc(C)nc3C)ccc12 [Example 111, hydrochloride]"
  pIC50: 5.49

I. CNCc1cn(S(=O)(=O)c2cccnc2)c2cc(Nc3ccc(F)c(OC)c3F)ccc12 [Example 68, hydrochloride]
II. CNCc1cn(S(=O)(=O)c2cccc(OC(F)(F)F)c2)c2cc(Nc3ccc(C)nc3F)ccc12 [Example 204, hydrochloride]
Which of the two items, I and II , has the greater recorded pIC50? Give the label under which the chosen entry appears. II

====

target: proton pump (H+/K+-ATPase) (Sus scrofa, UniProt P19156); construct: Gastric vesicles were prepared from hog stomach via centrifugal separation; experiment: Measurement of inhibitory effects on proton pump (H+/K+-ATPase) activities; details: hog gastric vesicles, K+-specific H+/K+-ATPase activity, Tris-HCl buffer pH 7.4, 37° C. for 40 minutes, malachite green Pi readout
Sequence (P19156 whole entry): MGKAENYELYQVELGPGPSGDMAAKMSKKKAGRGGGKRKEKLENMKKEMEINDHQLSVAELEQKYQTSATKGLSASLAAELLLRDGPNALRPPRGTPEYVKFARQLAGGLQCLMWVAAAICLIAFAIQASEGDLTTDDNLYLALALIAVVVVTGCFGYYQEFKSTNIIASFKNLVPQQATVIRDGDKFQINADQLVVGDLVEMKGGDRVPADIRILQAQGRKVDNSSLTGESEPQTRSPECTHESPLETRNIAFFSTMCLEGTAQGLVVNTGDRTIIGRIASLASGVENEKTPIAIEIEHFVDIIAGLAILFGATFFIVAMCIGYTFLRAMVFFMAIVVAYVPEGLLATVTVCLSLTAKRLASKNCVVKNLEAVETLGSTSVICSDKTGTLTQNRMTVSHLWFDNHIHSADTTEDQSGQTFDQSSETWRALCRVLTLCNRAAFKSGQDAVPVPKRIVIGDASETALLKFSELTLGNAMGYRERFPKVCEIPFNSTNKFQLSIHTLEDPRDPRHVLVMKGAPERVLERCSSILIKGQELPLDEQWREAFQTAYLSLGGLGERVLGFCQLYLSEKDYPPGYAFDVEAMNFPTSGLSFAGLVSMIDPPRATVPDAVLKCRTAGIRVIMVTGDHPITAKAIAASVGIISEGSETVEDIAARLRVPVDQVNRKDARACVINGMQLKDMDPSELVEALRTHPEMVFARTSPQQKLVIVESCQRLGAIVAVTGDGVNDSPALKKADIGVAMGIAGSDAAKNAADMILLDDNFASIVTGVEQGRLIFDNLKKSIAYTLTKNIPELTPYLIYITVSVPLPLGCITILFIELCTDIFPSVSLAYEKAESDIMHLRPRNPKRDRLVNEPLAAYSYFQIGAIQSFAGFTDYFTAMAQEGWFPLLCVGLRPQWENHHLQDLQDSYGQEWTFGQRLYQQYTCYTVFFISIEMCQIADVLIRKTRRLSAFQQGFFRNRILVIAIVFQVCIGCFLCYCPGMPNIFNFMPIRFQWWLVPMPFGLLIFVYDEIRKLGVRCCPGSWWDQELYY
Sequence (P18434 whole entry partner): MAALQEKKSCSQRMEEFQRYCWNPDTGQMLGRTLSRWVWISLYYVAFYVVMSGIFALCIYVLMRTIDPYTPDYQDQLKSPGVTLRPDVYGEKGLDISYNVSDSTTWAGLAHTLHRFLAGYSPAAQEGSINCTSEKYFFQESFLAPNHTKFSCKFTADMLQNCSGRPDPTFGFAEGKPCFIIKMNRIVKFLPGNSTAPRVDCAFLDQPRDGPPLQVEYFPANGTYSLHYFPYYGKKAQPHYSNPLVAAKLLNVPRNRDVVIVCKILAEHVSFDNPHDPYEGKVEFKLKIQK
Where a name gives a salt, the structure may show the parent alone.
READOUT: IC50 (nM)

Please review the entries below; each comes with its answer.
- COMPOUND: "CN(C)C(=O)c1cn(S(=O)(=O)c2cccnc2)c2cc(Nc3ccc(C(F)(F)F)cc3Cl)ccc12"
  OUTPUT_UNIT: "nM"
  IC50: 68000
- COMPOUND: "CNCc1cn(S(=O)(=O)c2cccnc2)c2cc(Nc3c(F)cc(OC)cc3F)ccc12 [Example 88, hydrochloride]"
  OUTPUT_UNIT: "nM"
  IC50: 430

A. CNCc1cn(S(=O)(=O)c2cccc(F)c2)c2cc(Nc3ccc(OC(F)(F)F)cc3OC)cnc12 [Example 343, hydrochloride]
B. CNCc1cn(S(=O)(=O)c2cccc(OC)c2)c2cc(Nc3ccc(C(F)(F)F)cc3Cl)ccc12 [Example 166, hydrochloride]
C. CNCc1cn(S(=O)(=O)c2cccnc2)c2cc(Nc3c(F)cc(F)cc3Cl)ccc12 [Example 83, hydrochloride]
Hello, I need these entries ordered by IC50, highest reading first. Thanks! I would appreciate it if you listed the labels in the requested order. A, C, B
(A: 1920 nM, C: 1030 nM, B: 340 nM)

1. CNCc1cn(S(=O)(=O)c2ccc(-c3ccccc3)cc2)c2cc(Nc3ccc(C)cc3F)ccc12 [Example 232, hydrochloride]
2. CNCc1cn(S(=O)(=O)c2cccnc2)c2cc(Nc3ccc(Cl)cc3C)ccc12 [Example 27, hydrochloride]
Kindly identify the item with the lower IC50 figure among these two: 1 and 2 Give the label under which the chosen entry appears. 2
(2: 420 nM, 1: 2150 nM)

====

biological target: proton pump (H+/K+-ATPase) (Sus scrofa); construct: Gastric vesicles were prepared from hog stomach via centrifugal separation; test: Measurement of inhibitory effects on proton pump (H+/K+-ATPase) activities; conditions: hog gastric vesicles, K+-specific H+/K+-ATPase activity, Tris-HCl buffer pH 7.4, 37° C. for 40 minutes, malachite green Pi readout
Structures can show the parent of a compound that is named as a salt.
READOUT: IC50 (nM)

a. CNCc1cn(S(=O)(=O)c2cccnc2)c2cc(Oc3ccc(C(F)(F)F)cc3Cl)ccc12 [Example 311, hydrochloride]
b. CNCc1cn(S(=O)(=O)c2cncc(F)c2)c2cc(Nc3ccc(F)cc3Cl)cnc12 [Example 352, hydrochloride]
c. CNCc1cn(S(=O)(=O)c2cccnc2)c2cc(Nc3c(F)cc(Br)cc3Br)ccc12 [Example 93, hydrochloride]
d. CNCc1cn(S(=O)(=O)c2cccnc2)c2cc(Nc3ccc(OC(F)(F)F)cc3F)ccc12 [Example 54, hydrochloride]
Form: Sort by [IC50] Order [ ascending ] I would appreciate it if you listed the labels in the requested order. b, d, c, a
(b: 250 nM, d: 1050 nM, c: 2220 nM, a: 4170 nM)

====

Molecular target: proton pump (H+/K+-ATPase) (Sus scrofa)
Construct: Gastric vesicles were prepared from hog stomach via centrifugal separation; from tissue; host or cells: hog stomach (gastric vesicles, method of Rabon et al. 1988)
Experiment: Measurement of inhibitory effects on proton pump (H+/K+-ATPase) activities
Type: biochemical
Conditions: hog gastric vesicles, K+-specific H+/K+-ATPase activity, Tris-HCl buffer pH 7.4, 37° C. for 40 minutes, malachite green Pi readout
Description: 1) Preparation of Gastric Vesicles Gastric vesicles were prepared from hog stomach via centrifugal separation (Edd C. Rabon et al., Preparation of Gastric H^+,K^+-ATPase, Methods in enzymology, vol. 157 Academic Press Inc., (1988), pp. 649-654). The protein contents of the thus prepared gastric vesicles were quantitated by Bicinchoninic Acid (BCA) kit. […] The inhibitory effects of the compounds of the present invention against proton pump activities were measured using a 96-well plate. […]
Counter-ions that a name gives are not always drawn.
READOUT: IC50 (µM)

- COMPOUND: "CNCc1cn(S(=O)(=O)c2cccnc2)c2cc(Cc3ccc(OC)cc3F)ccc12 [Example 277, hydrochloride]"
  IC50 [µM]: 0.76

P. CNCc1cn(S(=O)(=O)c2ccc(OC(F)F)cc2)c2cc(-c3cncnc3)ccc12 [Example 265, hydrochloride]
Q. CNCc1cn(S(=O)(=O)c2ccccc2C)c2cc(Nc3ccc(C)cc3F)ccc12 [Example 223, hydrochloride]
R. CNCc1cn(S(=O)(=O)c2cccnc2)c2cc(Nc3cccc(Cl)c3)ccc12 [Example 7, hydrochloride]
Hello, I need these entries ordered by IC50, highest reading first. Thanks! I would appreciate it if you listed the labels in the requested order. P, Q, R
(P: 40 µM, Q: 1.29 µM, R: 0.59 µM)

====

molecular target: proton pump (H+/K+-ATPase) (Sus scrofa); construct: Gastric vesicles were prepared from hog stomach via centrifugal separation; experiment: Measurement of inhibitory effects on proton pump (H+/K+-ATPase) activities; conditions: hog gastric vesicles, K+-specific H+/K+-ATPase activity, Tris-HCl buffer pH 7.4, 37° C. for 40 minutes, malachite green Pi readout
Counter-ions that a name gives are not always drawn.
READOUT: IC50 (nM)

Please review the entries below; each comes with its answer.
- COMPOUND: "CNCc1cn(S(=O)(=O)c2cccc(F)c2)c2cc(Nc3ccc(Cl)cc3C)cnc12 [Example 341, hydrochloride]"
  OUTPUT_UNIT: "nM"
  OBSERVED_RESULT: 380
- COMPOUND: "CNCc1cn(S(=O)(=O)c2cccnc2)c2cc(Nc3ccc(Cl)cc3Cl)ccc12 [Example 29, hydrochloride]"
  OUTPUT_UNIT: "nM"
  OBSERVED_RESULT: 130
- COMPOUND: "CNCc1cn(S(=O)(=O)c2cccc(OC)c2)c2cc(Nc3ccc(C)nc3Cl)ccc12 [Example 172, hydrochloride]"
  OUTPUT_UNIT: "nM"
  OBSERVED_RESULT: 1500
- COMPOUND: "CNCc1cn(S(=O)(=O)c2ccccc2F)c2cc(Cc3ccc(C)cc3Cl)ccc12"
  OUTPUT_UNIT: "nM"
  OBSERVED_RESULT: 1530
- COMPOUND: "CNCc1cn(S(=O)(=O)c2cncc(F)c2)c2cc(Nc3ccc(OC)cc3OC(F)(F)F)ccc12 [Example 214, hydrochloride]"
  OUTPUT_UNIT: "nM"
  OBSERVED_RESULT: 1690
- COMPOUND: "CNCc1cn(S(=O)(=O)c2cncc(F)c2)c2cc(Nc3ccc(F)cc3C)ccc12 [Example 212, hydrochloride]"
  OUTPUT_UNIT: "nM"
  OBSERVED_RESULT: 180
- COMPOUND: "CNCc1cn(S(=O)(=O)c2cncc(F)c2)c2cc(Nc3ccc(OC)nc3Cl)ccc12 [Example 217, hydrochloride]"
  OUTPUT_UNIT: "nM"
  OBSERVED_RESULT: 540
- COMPOUND: "CNCc1cn(S(=O)(=O)c2cccc(OC(F)F)c2)c2cc(-c3cnc(F)c(C)c3)ccc12 [Example 263, hydrochloride]"
  OUTPUT_UNIT: "nM"
  OBSERVED_RESULT: 60000

a. CNCc1cn(S(=O)(=O)c2cccnc2)c2cc(-c3ccc(C)cc3Cl)ccc12 [Example 253, hydrochloride]
b. CNCc1cn(S(=O)(=O)c2cccc(C(F)(F)F)c2)c2cc(Cc3ccc(C)cc3Cl)ccc12
c. CNCc1cn(S(=O)(=O)c2cccnc2)c2cc(Cc3ccc(C)cc3)ccc12 [Example 270, hydrochloride]
Order the entries by their reported IC50, beginning at the minimum. I would appreciate it if you listed the labels in the requested order. b, a, c

P. CNCc1cn(S(=O)(=O)c2cccnc2)c2cc(-c3ccc(-c4ccccc4)cc3)ccc12
Q. CNCc1cn(S(=O)(=O)c2cccnc2)c2cc(Nc3ccc(Oc4ccc(Cl)cc4)cc3)ccc12 [Example 19, hydrochloride]
R. CNCc1cn(S(=O)(=O)c2cccnc2)c2cc(Nc3c(C)ccnc3Cl)ccc12 [Example 127, hydrochloride]
Hello, I need these entries ordered by IC50, highest reading first. Thanks! I would appreciate it if you listed the labels in the requested order. P, Q, R

P. CNCc1cn(S(=O)(=O)c2ccc(OC(F)F)cc2)c2cc(Cc3ccc(C)cc3Cl)ccc12
Q. CNCc1cn(S(=O)(=O)c2cccc(F)c2)c2cc(Nc3ccc(C)cc3Cl)ncc12 [Example 359, hydrochloride]
Which of the two items, P and Q , has the greater recorded IC50? Give the label under which the chosen entry appears. Q

1. CNCc1cn(S(=O)(=O)c2cccnc2)c2cc(Nc3ccc(Cl)nc3C(F)(F)F)ccc12 [Example 121, hydrochloride]
2. CNCc1cn(S(=O)(=O)c2cccc(Cl)c2)c2cc(Cc3ccc(C)cc3Cl)ccc12
Which of the two items, 1 and 2 , has the greater recorded IC50? Give the label under which the chosen entry appears. 2
